This section presents compounds with their documented EC50 values.
System: THP-1 viability, CellTiter-Glo luminescence, 72 h
Assay: THP-1 cell cytotoxicity, dose response, cytotoxicity control for Salmonella PhoP regulon inhibitors, S. typhimurium screen hits (AID 2253)
Observation Type: EC50

Compound	Result
Cc1ccccc1Cn1c(=N)n(CC(=O)c2ccco2)c2ccccc21	22.8 µM
O=[N+]([O-])c1ccc(NCCCNS(=O)(=O)c2ccccc2)c(Cl)c1	42.4 µM
CCCCOc1ccc(Br)cc1CSC(=N)N	5.78 µM
O=C(c1ccco1)[C@@H]1[C@@H]2C(=O)N(c3ccc(F)cc3)C(=O)[C@@H]2[C@H]2C=Cc3ccccc3N21	23.5 µM
CCCCCCCCCn1c2c(c(=N)c3c1CCC3)CCCC2	0.37 µM
O=C(C[n+]1cc(-c2ccc(Cl)cc2)n2c1CCC2)Nc1nc(-c2ccc(F)cc2)cs1	26.7 µM
O=C(N/N=C/c1cc([N+](=O)[O-])ccc1O)C1CC1	26 µM
O=c1cc2oc3cc(O)c(O)cc3c(-c3ccccc3[N+](=O)[O-])c-2cc1O	10.5 µM
Cn1c(-c2ccc3c(c2)OCO3)cnc1NCc1cccc(Cl)c1	15.5 µM
Oc1c(C(Nc2ccccn2)c2ccccn2)ccc2cccnc12 (stereo not drawn)	4.23 µM
O=C(NC1CCCCC1)C(c1ccncc1)N(Cc1ccccc1)C(=O)c1ccc(-c2ccccc2)[nH]1 (stereo not drawn)	22.5 µM
CCN1CCN(C(c2cccnc2)c2cc(Cl)c3cccnc3c2O)CC1 (stereo not drawn)	8.34 µM
Cc1ccc(C)c(-c2nc3ccc(N)cc3[nH]2)c1	10.5 µM
C/C(CC(=O)Nc1ccc(Cl)c(C(F)(F)F)c1)=N\NC(=O)c1cc2ccccc2cc1O	8.06 µM
O=[N+]([O-])c1ccc(O)c2ncccc12	8.31 µM
COc1ccc(C(=O)On2c(-c3ccc(Br)cc3)nc3ccccc3c2=O)cc1	12.8 µM
Cc1cccc(NC(=O)Cn2c(/C=C/c3ccccc3)nc3ccccc32)c1	45 µM
CCN(CC)S(=O)(=O)c1cccc(NC(=O)Nc2cccc(C(F)(F)F)c2)c1	5.09 µM
CC(C)c1ccc(NC(=O)N(CCc2nc3ccccc3[nH]2)C2CCCC2)cc1	43.1 µM
COc1ccccc1CNCC(O)Cn1c2ccccc2c2ccccc21 (stereo not drawn)	8.21 µM
COc1ccc(C(=O)N/N=C/c2sc3ccccc3c2O)cc1	3.13 µM
CCc1ccc(CNc2ccc(O)cc2)cc1	17.1 µM
O=C1C=C(N2CCOCC2)c2ccccc2C1=O	6.88 µM
